# System name: LATS1 (Homo sapiens, UniProt O95835)
# Sequence (O95835 whole entry): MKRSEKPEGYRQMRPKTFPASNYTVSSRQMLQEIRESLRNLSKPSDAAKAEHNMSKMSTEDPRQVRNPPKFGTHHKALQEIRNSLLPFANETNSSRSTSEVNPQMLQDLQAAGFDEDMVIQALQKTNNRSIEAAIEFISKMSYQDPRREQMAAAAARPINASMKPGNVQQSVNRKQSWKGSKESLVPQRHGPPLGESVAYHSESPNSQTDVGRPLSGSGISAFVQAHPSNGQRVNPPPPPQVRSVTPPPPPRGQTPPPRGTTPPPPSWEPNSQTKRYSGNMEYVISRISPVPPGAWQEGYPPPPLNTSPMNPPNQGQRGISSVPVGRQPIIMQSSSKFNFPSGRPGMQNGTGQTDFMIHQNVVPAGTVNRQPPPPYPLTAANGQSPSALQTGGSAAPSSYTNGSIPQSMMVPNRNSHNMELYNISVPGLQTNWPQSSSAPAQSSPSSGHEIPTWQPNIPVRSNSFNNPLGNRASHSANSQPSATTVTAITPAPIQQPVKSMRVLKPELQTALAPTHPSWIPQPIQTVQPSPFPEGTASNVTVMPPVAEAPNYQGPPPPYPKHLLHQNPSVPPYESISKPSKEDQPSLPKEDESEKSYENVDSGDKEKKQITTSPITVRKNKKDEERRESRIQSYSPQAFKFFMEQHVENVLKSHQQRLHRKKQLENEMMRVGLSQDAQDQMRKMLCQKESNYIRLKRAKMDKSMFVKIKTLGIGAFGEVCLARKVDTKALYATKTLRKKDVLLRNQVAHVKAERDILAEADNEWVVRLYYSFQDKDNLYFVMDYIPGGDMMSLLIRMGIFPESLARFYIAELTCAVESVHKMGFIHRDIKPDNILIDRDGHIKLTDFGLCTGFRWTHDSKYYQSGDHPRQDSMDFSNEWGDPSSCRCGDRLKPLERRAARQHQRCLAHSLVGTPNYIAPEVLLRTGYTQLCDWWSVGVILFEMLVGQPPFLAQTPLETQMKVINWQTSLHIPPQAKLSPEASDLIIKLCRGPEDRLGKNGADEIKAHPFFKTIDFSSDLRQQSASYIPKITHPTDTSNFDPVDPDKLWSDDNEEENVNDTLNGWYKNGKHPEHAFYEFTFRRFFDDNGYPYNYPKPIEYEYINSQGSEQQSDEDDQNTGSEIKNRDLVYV
# Method: RBC HotSpot kinase assay (33P-ATP, P81 filter-binding), LATS1
# Assay type: biochemical
# Measurement setup: Table 28, biochemical kinase assay; read-out: LATS1 IC50
Lab note: compare IC50 with 10 nM, writing Condition met if less and Condition not met if equal or more.

Substance smiles: c1cc(-c2ccc3c(c2)CCNC3)c2cc[nH]c2n1
Class label: Condition not met
//
Substance smiles: CN[C@H](C)C(=O)N1C[C@@H](C)[C@](O)(c2c(C)cc(-c3ccnc4[nH]cc(F)c34)cc2F)[C@@H](C)C1
Class label: Condition not met
//
Substance smiles: CCOCCS(=O)(=O)N1CCC(c2ccc(-c3ccnc4[nH]cc(F)c34)cc2Cl)CC1
Class label: Condition not met
//
Substance smiles: Cc1cc(-c2ccnc3[nH]cc(F)c23)cc(F)c1[C@@]1(O)[C@H](C)CN(C(=O)[C@@H]2CC(F)(F)CN2)C[C@@H]1C
Class label: Condition met
//
Substance smiles: NCc1ccc(-c2cc(Cl)nc3[nH]ccc23)cc1
Class label: Condition not met
//
Substance smiles: C=C(C)c1cc(-c2ccnc3[nH]ccc23)ccc1CN
Class label: Condition met
//
Substance smiles: Cc1cc(-c2ccnc3[nH]ccc23)ccc1C1CCNCC1
Class label: Condition not met

* * *

Each item that follows carries a reported IC50.
# System name: LATS2 (Homo sapiens)
# Sequence (Q9NRM7 whole entry): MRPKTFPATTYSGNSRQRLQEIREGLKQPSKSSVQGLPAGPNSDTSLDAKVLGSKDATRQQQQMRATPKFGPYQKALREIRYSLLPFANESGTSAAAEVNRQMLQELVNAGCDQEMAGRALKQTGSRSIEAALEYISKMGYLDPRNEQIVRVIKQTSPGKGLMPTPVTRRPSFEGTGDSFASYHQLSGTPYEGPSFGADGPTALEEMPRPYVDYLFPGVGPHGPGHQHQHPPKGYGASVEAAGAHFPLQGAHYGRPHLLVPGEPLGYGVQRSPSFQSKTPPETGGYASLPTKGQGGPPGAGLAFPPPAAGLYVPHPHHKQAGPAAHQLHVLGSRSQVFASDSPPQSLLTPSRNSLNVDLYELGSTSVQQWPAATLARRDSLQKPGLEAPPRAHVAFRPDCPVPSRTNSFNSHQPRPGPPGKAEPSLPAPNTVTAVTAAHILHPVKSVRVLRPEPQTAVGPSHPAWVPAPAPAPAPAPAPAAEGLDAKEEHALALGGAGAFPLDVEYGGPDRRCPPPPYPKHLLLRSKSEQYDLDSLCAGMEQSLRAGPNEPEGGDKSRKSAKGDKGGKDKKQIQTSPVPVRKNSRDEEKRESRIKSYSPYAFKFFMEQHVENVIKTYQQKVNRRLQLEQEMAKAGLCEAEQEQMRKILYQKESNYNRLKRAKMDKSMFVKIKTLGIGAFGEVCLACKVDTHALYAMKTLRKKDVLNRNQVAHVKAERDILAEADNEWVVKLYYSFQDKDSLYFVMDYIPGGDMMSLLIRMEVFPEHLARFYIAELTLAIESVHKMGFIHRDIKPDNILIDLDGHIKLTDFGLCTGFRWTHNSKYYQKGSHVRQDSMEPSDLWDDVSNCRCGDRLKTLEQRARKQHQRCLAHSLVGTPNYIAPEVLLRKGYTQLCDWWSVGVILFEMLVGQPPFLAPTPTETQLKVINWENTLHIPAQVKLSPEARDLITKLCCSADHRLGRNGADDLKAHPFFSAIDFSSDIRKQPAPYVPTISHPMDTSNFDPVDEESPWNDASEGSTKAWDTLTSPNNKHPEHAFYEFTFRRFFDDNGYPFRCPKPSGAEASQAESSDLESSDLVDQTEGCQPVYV
# Method: RBC HotSpot kinase assay (33P-ATP, P81 filter-binding), LATS2
# Assay type: biochemical
# Measurement setup: Table 28, biochemical kinase assay; read-out: LATS2 IC50

Compound: OC1(c2ccc(-c3ccnc4[nH]cc(F)c34)cc2)CC2(CNC2)C1
System name: LATS2 (Homo sapiens)
Unit symbol: nM
IC50: 29.3
--
Compound: Cc1cc(-c2ccnc3[nH]cc(F)c23)cc(F)c1C1(O)[C@H](C)CN(C2CCOCC2)C[C@@H]1C (stereo partly shown)
System name: LATS2 (Homo sapiens)
Unit symbol: nM
IC50: 1.9
--
Compound: C[C@@H]1CN(C2COC2)C[C@H](C)[C@@]1(O)c1ccc(-c2ccnc3[nH]cc(F)c23)cc1Cl
System name: LATS2 (Homo sapiens)
Unit symbol: nM
IC50: 2.8
--
Compound: N#Cc1cc(C2CCNCC2)ccc1-c1ccnc2[nH]ccc12
System name: LATS2 (Homo sapiens)
Unit symbol: nM
IC50: 2410
--
Compound: FC(F)(F)Oc1cccc(CNCc2ccc(-c3ccnc4[nH]ccc34)cc2)c1
System name: LATS2 (Homo sapiens)
Unit symbol: nM
IC50: 191
--
Compound: CN(C)C(C)(C)c1ccc(-c2ccnc3[nH]ccc23)cc1
System name: LATS2 (Homo sapiens)
Unit symbol: nM
IC50: 146
--
Compound: CC(C)N1C[C@@H](C)[C@](O)(c2c(F)cc(-c3ccnc4[nH]cc(F)c34)cc2F)[C@@H](C)C1
System name: LATS2 (Homo sapiens)
Unit symbol: nM
IC50: 11.2
--
Compound: COC(=O)c1c[nH]c2nccc(-c3ccc(C4(O)CNC4)c(Cl)c3)c12
System name: LATS2 (Homo sapiens)
Unit symbol: nM
IC50: 110
--
Compound: Cc1nc(-c2ccnc3[nH]cc(F)c23)ccc1[C@@]1(O)[C@H](C)CNC[C@@H]1C
System name: LATS2 (Homo sapiens)
Unit symbol: nM
IC50: 20.3
--
Compound: C[C@@H]1CN(C(=O)[C@H]2CCCN2)C[C@H](C)[C@@]1(O)c1c(F)cc(-c2ccnc3[nH]cc(F)c23)cc1F
System name: LATS2 (Homo sapiens)
Unit symbol: nM
IC50: 10.3
--
Compound: Cc1cc(-c2ccnc3[nH]cc(F)c23)ccc1CN
System name: LATS2 (Homo sapiens)
Unit symbol: nM
IC50: 5.5
--
Compound: Cc1cc(-c2ccc(CN)cc2)c2cc[nH]c2n1
System name: LATS2 (Homo sapiens)
Unit symbol: nM
IC50: 4260
--
Compound: Cc1ccccc1-c1c[nH]c2nccc(-c3ccc(CN)cc3)c12
System name: LATS2 (Homo sapiens)
Unit symbol: nM
IC50: 235
--
Compound: Cc1cc(-c2ccnc3[nH]cc(Cl)c23)cc(F)c1[C@@]1(O)[C@H](C)CN(C(=O)CN)C[C@@H]1C
System name: LATS2 (Homo sapiens)
Unit symbol: nM
IC50: 3.8
--
Compound: C[C@@H]1CN(Cc2ccncc2)C[C@H](C)[C@@]1(O)c1c(F)cc(-c2ccnc3[nH]cc(F)c23)cc1F
System name: LATS2 (Homo sapiens)
Unit symbol: nM
IC50: 9.2
--
Compound: COC(=O)c1c[nH]c2nccc(-c3ccc([C@@]4(O)[C@H](C)CN(C(=O)CN)C[C@@H]4C)c(C)c3)c12
System name: LATS2 (Homo sapiens)
Unit symbol: nM
IC50: 3.6
